Ref: PubChem BioAssay (NCATS)

- ASSAY_NOTES: qHTS for Inhibitors of Plasmodium falciparum (7G8) proliferation (AID 504316); note: nearly all actives have a fitted effect of over 65% in size; note: potency is the fitted concentration of half-maximal effect
- SETUP_CONDITIONS: P. falciparum 7G8 in erythrocytes, SYBR Green DNA, 72 h; series mostly up to 6.7 µM
Inconclusive results are not listed. Activity calls are given as the source filed them. Calls come from the whole dose curve; as a rule, active = well fitted inhibition curve with a large enough effect; inconclusive = small, poorly fitted or top-dose-only effect; inactive = flat fitted curve, though single readings scatter.
REPORTED_METRIC: Potency

>>> recorded_value("O=C(C=Cc1cccc([N+](=O)[O-])c1)c1ccccc1")
"inactive"
>>> recorded_value("COC(=O)c1ccc(CN2C(=O)[C@]3(OCCC=C[C@@H]3C)c3ccccc32)cc1")
"inactive"
>>> recorded_value("CCCCC1=CC2=C(c3ccco3)C(=O)C(C)(OC(=O)c3ccc(OC)cc3)C(=O)C2=CN1CCCN(CC)CC (stereo not given)")
"inactive"
>>> recorded_value("C#CCCCON=C1C[C@@H](O)[C@H](O)[C@H]2[C@@H]3C(=O)N(c4ccc(F)cc4F)C(=O)[C@@H]3CC[C@H]12")
"inactive"

Okay, now this compound:
Name the reported Potency value associated with the compound CCc1cc2c(nc1CC)CCN(CCC(C)=NO[C@@H](C)c1cn([C@H](CO)Cc3ccccc3)nn1)C2 1.69 µM (active)
